Data origin: ChEMBL document CHEMBL1275439

# Tested on: Acinetobacter baumannii
# assayProtocol: Antimicrobial activity against Acinetobacter baumannii Ab290 containing plasmid harboring OXA-58-4 by broth dilution test
# Type: functional
readoutType: MIC

compound: CC1(C)S[C@@H]2[C@H](NC(=O)[C@H](N)c3ccc(O)cc3)C(=O)N2[C@H]1C(=O)O
system: Acinetobacter baumannii
readoutType: MIC
result: > 256 µg/mL

compound: C[C@@H](O)[C@H]1C(=O)N2C(C(=O)O)=C(S[C@@H]3CN[C@H](C(=O)N(C)C)C3)[C@H](C)[C@H]12
system: Acinetobacter baumannii
readoutType: MIC
result: 0.5 µg/mL

compound: CC1(C)S[C@@H]2[C@H](NC(=O)[C@H](C(=O)O)c3ccsc3)C(=O)N2[C@H]1C(=O)O
system: Acinetobacter baumannii
readoutType: MIC
result: 256 µg/mL

Turning now to a further compound:
Problem: Param item = C[C@@H](O)[C@H]1C(=O)N2C(C(=O)O)=C(SCCNC=N)C[C@H]12 [IMIPENEM ANHYDROUS] ; retrieve measured MIC.
Result: 1 µg/mL
